Attribute: GI50
Test system: SK-MEL-28 melanoma
Test: NCI tumour cell line growth inhibition, 48 h

COMPOUND	GI50
COC1C(O)CC(OC2CC(OC3CC(O[C@@H]4C(=O)c5c(cc6cc(OC7CC(OC8CC(O)C(O)C(C)O8)C(O)C(C)O7)c(C)c(O)c6c5O)CC4[C@H](OC)C(=O)O)OC(C)C3O)OC(C)C2O)OC1C (some centres undefined)	1480 nM
O=c1oc2ccc(I)cc2c(=O)n1-c1ccc(F)cc1F	1760 nM
CSC(=NC#N)S/C=C/C(=O)c1ccccc1	58000 nM
COc1ccc2c(c1)c(-c1nc(-c3c[nH]c4ncccc34)cs1)cn2CCCN1CCCCC1	1720 nM
